# ASSAY_REMARKS: Neurotoxicity against mouse BV-2 cells incubated for 24 hrs by MTT assay
# Assay type: toxicity, cell-based
# STUDY_CONDITIONS: read-out: LD50
With a cut-off of 20 µM, any CC50 at 24 h strictly below it is called label 1; any CC50 at 24 h meeting it or above is called label 0.

| CHEMICAL_STRUCTURE | CLASS_ASSIGNMENT |
| --- | --- |
| O=C(CN(Cc1ccc2ccccc2c1)Cc1ccco1)Nc1ccccc1 | label 1 |
| CC(C)CN(CCCc1ccccc1)Cc1ccc2ccccc2c1 | label 0 |
| Cc1ccccc1NC(=O)CN(Cc1ccc2ccccc2c1)Cc1ccco1 | label 1 |
| CCCCN(CCCc1ccccc1)Cc1ccc2ccccc2c1 | label 0 |
| CCN(CC)CCN(CC(=O)Nc1ccccc1C)Cc1ccc2ccccc2c1 | label 0 |
| Cc1cccc(NC(=O)CN(Cc2ccccc2)Cc2ccco2)c1C | label 1 |

---

# TEST_TARGET: Cholinesterase (Mus musculus)
# Sequence (Q03311 whole entry): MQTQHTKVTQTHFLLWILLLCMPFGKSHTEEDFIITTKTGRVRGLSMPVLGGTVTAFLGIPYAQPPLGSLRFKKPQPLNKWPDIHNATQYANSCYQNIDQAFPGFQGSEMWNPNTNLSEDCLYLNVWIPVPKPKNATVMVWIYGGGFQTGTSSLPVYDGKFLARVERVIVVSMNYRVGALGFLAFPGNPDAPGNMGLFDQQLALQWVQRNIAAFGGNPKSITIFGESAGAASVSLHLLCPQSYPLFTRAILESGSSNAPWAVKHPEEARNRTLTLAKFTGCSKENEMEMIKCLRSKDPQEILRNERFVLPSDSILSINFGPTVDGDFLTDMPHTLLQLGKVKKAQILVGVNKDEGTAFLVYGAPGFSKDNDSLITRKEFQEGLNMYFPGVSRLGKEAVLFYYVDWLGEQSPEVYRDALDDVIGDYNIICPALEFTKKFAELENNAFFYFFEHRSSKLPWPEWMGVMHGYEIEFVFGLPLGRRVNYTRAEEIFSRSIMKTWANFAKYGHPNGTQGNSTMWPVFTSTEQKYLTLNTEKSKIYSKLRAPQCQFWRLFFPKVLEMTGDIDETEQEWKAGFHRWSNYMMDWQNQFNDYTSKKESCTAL
READOUT_NAME: IC50

| COMPOUND | READOUT_NAME | MEASURED_VALUE |
| --- | --- | --- |
| COCCN(CC1CCCN(Cc2ccccc2)C1)S(=O)(=O)c1ccc2ccccc2c1 (stereo unspecified) | IC50 | > 10 µM |

---

# TEST_TARGET: Acetylcholinesterase (Electrophorus electricus)
# ASSAY_REMARKS: Inhibition of electric eel AchE using acetylthiocholine iodide as substrate at <10 uM measured for 3 mins by Ellman's method relative to control
# reported inhibition; entries follow
READOUT_NAME: inhibition (%)

| CHEMICAL_STRUCTURE | MEASURED_VALUE |
| --- | --- |
| O=C(CN(Cc1ccc2ccccc2c1)Cc1ccco1)Nc1ccccc1 | 16.9 |
| O=C(CN(Cc1ccccc1)Cc1ccco1)Nc1cccc(Cl)c1 | 19.6 |
| Cc1ccccc1NC(=O)CN(Cc1ccc2ccccc2c1)Cc1ccco1 | 15.9 |
| Cc1ccccc1NC(=O)CN(Cc1ccc2ccccc2c1)CC(C)(C)C | 19.6 |
| Cc1cccc(NC(=O)CN(Cc2ccco2)Cc2c[nH]c3ccccc23)c1 | 14.3 |
| Cc1cccc(NC(=O)CN(Cc2ccc3ccccc3c2)Cc2ccco2)c1 | 15.1 |
| O=C(CN(Cc1ccccc1)Cc1ccco1)Nc1ccccc1 | 12.6 |
| O=C(CN(Cc1ccccc1)Cc1ccco1)Nc1cnc2ccccc2c1 | 13.2 |
| Cc1ccc(NC(=O)CN(Cc2ccccc2)Cc2ccco2)cc1 | 12.8 |
| O=C(CN(Cc1ccccc1)Cc1ccco1)Nc1ccccc1F | 14.1 |
| O=C(CN(Cc1ccccc1)Cc1ccco1)Nc1ccc(F)cc1 | 14.5 |

---

IC50 values, listed per item
# TEST_TARGET: Cholinesterase (Equus caballus, UniProt P81908)
# Sequence (P81908 whole entry): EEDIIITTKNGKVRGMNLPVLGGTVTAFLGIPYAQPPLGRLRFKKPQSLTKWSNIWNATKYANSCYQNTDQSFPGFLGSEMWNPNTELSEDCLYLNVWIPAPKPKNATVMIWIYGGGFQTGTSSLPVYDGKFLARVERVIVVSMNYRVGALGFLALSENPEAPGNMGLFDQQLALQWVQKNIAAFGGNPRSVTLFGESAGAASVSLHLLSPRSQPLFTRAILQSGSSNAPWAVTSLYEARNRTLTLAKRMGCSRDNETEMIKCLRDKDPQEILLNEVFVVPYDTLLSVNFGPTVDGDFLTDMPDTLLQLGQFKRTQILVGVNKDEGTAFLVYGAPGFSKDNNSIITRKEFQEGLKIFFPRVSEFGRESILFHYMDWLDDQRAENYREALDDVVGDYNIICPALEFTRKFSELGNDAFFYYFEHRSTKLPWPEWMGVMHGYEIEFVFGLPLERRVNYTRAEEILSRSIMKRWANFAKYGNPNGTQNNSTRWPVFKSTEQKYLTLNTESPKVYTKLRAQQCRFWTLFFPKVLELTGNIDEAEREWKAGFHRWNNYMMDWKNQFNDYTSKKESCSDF
# ASSAY_REMARKS: Inhibition of horse serum BuChE using butyrylthiocholine iodide as substrate measured for 3 mins by Ellman's method

| CHEMICAL_STRUCTURE | IC50 [µM] |
| --- | --- |
| O=C(CN(Cc1ccco1)Cc1ccco1)Nc1ccccc1 | 7.81 |
| COc1ccc(NC(=O)CN(Cc2ccccc2)Cc2ccco2)cc1 | 121 |
| Cc1cccc(NC(=O)CN(Cc2ccco2)Cc2c[nH]c3ccccc23)c1 | 6.61 |
| CC(C)CN(CCCc1ccccc1)Cc1ccc2ccccc2c1 | 4.04 |
| O=C(CN(Cc1ccccc1)Cc1ccco1)Nc1cccc(F)c1F | 13.3 |
| O=C(CN(Cc1ccco1)Cc1c[nH]c2ccccc12)Nc1ccccc1 | 2.14 |
| CCCCN(CC(=O)Nc1ccccc1C)Cc1ccc2ccccc2c1 | 1.48 |
| Cc1ccccc1NC(=O)CN(Cc1ccc2ccccc2c1)CC(C)(C)C | 4.1 |
| N#Cc1ccc(NC(=O)CN(Cc2ccccc2)Cc2ccco2)cc1 | 710 |
| Cc1ccccc1NC(=O)CN(Cc1ccccc1)Cc1ccco1 | 5.46 |

---

Reported inhibition values for the following compounds.
# TEST_TARGET: Acetylcholinesterase (Electrophorus electricus)
# ASSAY_REMARKS: Inhibition of electric eel AchE using acetylthiocholine iodide as substrate at <10 uM measured for 3 mins by Ellman's method relative to control
READOUT_NAME: inhibition (%)

| CHEMICAL_STRUCTURE | READOUT_NAME | UNIT_INFO | MEASURED_VALUE |
| --- | --- | --- | --- |
| N#Cc1ccc(NC(=O)CN(Cc2ccccc2)Cc2ccco2)cc1 | inhibition | % | 9.68 |
| COc1cc(NC(=O)CN(Cc2ccccc2)Cc2ccco2)cc(OC)c1OC | inhibition | % | 16.1 |
| O=C(CN(Cc1ccco1)Cc1cccc2ccccc12)Nc1ccccc1 | inhibition | % | 19.6 |
| COc1cccc(NC(=O)CN(Cc2ccccc2)Cc2ccco2)c1 | inhibition | % | 9.2 |
| Cc1cccc(NC(=O)CN(Cc2ccco2)Cc2c[nH]c3ccccc23)c1C | inhibition | % | 18.2 |
| CCCCN(CCCc1ccccc1)Cc1ccc2ccccc2c1 | inhibition | % | 23 |
| CCCCN(CC(=O)Nc1ccccc1C)Cc1ccc2ccccc2c1 | inhibition | % | 21.9 |
| O=C(CN(Cc1ccco1)Cc1ccccc1[N+](=O)[O-])Nc1ccccc1 | inhibition | % | 15.8 |
| Cc1cccc(NC(=O)CN(Cc2ccc3ccccc3c2)Cc2ccco2)c1C | inhibition | % | 15.3 |
| Cc1cccc(NC(=O)CN(Cc2ccccc2)Cc2ccco2)c1 | inhibition | % | 13.3 |
| O=C(CN(Cc1ccccc1)Cc1ccco1)Nc1ccc(C(F)(F)F)cc1 | inhibition | % | 13.4 |

---

# ASSAY_REMARKS: Neurotoxicity against rat PC12 cells assessed as survival rate incubated for 24 hrs by MTT assay relative to control
# Assay type: toxicity, cell-based, PC-12
# Parameters: concentration or dose not given beside the values
# STUDY_CONDITIONS: read-out: Survival
One threshold, 70%, splits the recorded viability at 24 h values: lower ones are Criterion met, equal or higher ones are Criterion not met.

| CHEMICAL_STRUCTURE | CLASS_ASSIGNMENT |
| --- | --- |
| O=C(CN(Cc1ccc2ccccc2c1)Cc1ccco1)Nc1ccccc1 | Criterion not met |
| CCCCN(CC(=O)Nc1ccccc1C)Cc1ccc2ccccc2c1 | Criterion met |
| Cc1ccccc1NC(=O)CN(Cc1ccc2ccccc2c1)Cc1ccco1 | Criterion met |
| CCCCN(CCCc1ccccc1)Cc1ccc2ccccc2c1 | Criterion met |
| CC(C)CN(CCCc1ccccc1)Cc1ccc2ccccc2c1 | Criterion not met |
| Cc1cccc(NC(=O)CN(Cc2ccc3ccccc3c2)Cc2ccco2)c1 | Criterion not met |

---

Reported CC50 at 24 h values for the following molecules.
# ASSAY_REMARKS: Neurotoxicity against human SH-SY5Y cells incubated for 24 hrs by MTT assay
# Format: toxicity, cell-based
# STUDY_CONDITIONS: read-out: LD50
READOUT_NAME: CC50 at 24 h (µM)

| CHEMICAL_STRUCTURE | UNIT_INFO | MEASURED_VALUE |
| --- | --- | --- |
| Cc1cccc(NC(=O)CN(Cc2ccccc2)Cc2ccco2)c1C | µM | 35 |
| O=C(CN(Cc1ccco1)Cc1c[nH]c2ccccc12)Nc1ccccc1 | µM | 42.2 |
| CCCCN(CC(=O)Nc1ccccc1C)Cc1ccc2ccccc2c1 | µM | 70.2 |
| CCN(CC)CCN(CC(=O)Nc1ccccc1C)Cc1ccc2ccccc2c1 | µM | 50.8 |

---

# TEST_TARGET: Acetylcholinesterase (Electrophorus electricus)
# ASSAY_REMARKS: Inhibition of electric eel AchE using acetylthiocholine iodide as substrate at <10 uM measured for 3 mins by Ellman's method relative to control
READOUT_NAME: inhibition (%)

| CHEMICAL_STRUCTURE | MEASURED_VALUE |
| --- | --- |
| Cc1cccc(NC(=O)CN(Cc2ccccc2)Cc2ccco2)c1C | 19.7 |
| Cc1ccccc1NC(=O)CN(Cc1ccco1)Cc1c[nH]c2ccccc12 | 14.2 |
| O=C(CN(Cc1ccccc1)Cc1ccco1)Nc1cccc(F)c1F | 18 |
| Cc1ccccc1NC(=O)CN(Cc1ccc2ccccc2c1)C1CCCCC1 | 25.3 |
| O=C(CN(Cc1ccco1)Cc1ccco1)Nc1ccccc1 | 12.6 |
| O=C(CN(Cc1ccccc1)Cc1ccco1)Nc1cccc(F)c1 | 17.3 |

---

# TEST_TARGET: Cholinesterase (Homo sapiens)
# Sequence (P06276 whole entry): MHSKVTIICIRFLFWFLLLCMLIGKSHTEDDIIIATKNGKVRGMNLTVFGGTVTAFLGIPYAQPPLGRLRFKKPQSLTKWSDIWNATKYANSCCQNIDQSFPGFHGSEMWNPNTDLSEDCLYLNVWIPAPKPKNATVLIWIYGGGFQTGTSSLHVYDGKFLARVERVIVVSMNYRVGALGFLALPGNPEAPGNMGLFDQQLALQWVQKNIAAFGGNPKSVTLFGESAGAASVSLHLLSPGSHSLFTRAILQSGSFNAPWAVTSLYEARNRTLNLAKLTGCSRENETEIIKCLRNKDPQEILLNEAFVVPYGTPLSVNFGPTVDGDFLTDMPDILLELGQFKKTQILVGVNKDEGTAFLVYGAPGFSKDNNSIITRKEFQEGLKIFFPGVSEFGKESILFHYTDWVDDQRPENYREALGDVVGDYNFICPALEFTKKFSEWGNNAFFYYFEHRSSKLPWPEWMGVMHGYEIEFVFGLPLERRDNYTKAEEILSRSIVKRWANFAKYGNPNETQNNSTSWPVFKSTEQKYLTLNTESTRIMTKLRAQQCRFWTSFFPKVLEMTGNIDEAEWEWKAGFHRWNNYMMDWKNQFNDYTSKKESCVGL
Rule: measured IC50 below 30 nM gets 1; anything equal to or greater than 30 nM gets 0.

| CHEMICAL_STRUCTURE | CLASS_ASSIGNMENT |
| --- | --- |
| CCCCN(CC(=O)Nc1ccccc1C)Cc1ccc2ccccc2c1 | 0 |
| CCCCN(CCCc1ccccc1)Cc1ccc2ccccc2c1 | 1 |
| Cc1ccccc1NC(=O)CN(Cc1ccc2ccccc2c1)CC(C)C | 1 |
| CCN(CC)CCN(CC(=O)Nc1ccccc1C)Cc1ccc2ccccc2c1 | 0 |
| CC(C)CN(CCCc1ccccc1)Cc1ccc2ccccc2c1 | 1 |
| CCCN(CC(=O)Nc1ccccc1C)Cc1ccc2ccccc2c1 | 1 |
